Listing: viability, T/C of selected molecules
tested on: KRAS patient-derived spheroids with HUVEC/MSC, viability; assay: Anticancer human tumor 323965-272-R-J2-PDC patient-derived pancreatic carcinoma cell line growth inhibition [KRAS2]; conditions: second compound 0.1 µM; first compound 1 µM; active compounds read low
Property Measured: viability, T/C (%)

[[record]]
molecule = "COC(=O)c1ccc2c(C(=Nc3ccc(N(C)C(=O)CN4CCN(C)CC4)cc3)c3ccccc3)c(O)[nH]c2c1 + C=CC(=O)N1CCN(c2nc(OCC3CCCN3C)nc3c2CCN(c2cccc4cccc(C)c24)C3)CC1CC#N"
property_measured = "viability, T/C"
obs_value = 49.3

[[record]]
molecule = "O=C(c1cc(Cc2n[nH]c(=O)c3ccccc23)ccc1F)N1CCN(C(=O)C2CC2)CC1 + C=CC(=O)N1CCN(c2nc(=O)n(-c3c(C)ccnc3C(C)C)c3nc(-c4c(O)cccc4F)c(F)cc23)C(C)C1"
property_measured = "viability, T/C"
obs_value = 64.5

[[record]]
molecule = "CC1OCC2(CCN(c3cnc(Sc4ccnc(N)c4Cl)c(N)n3)CC2)C1N (centres undefined) + C=CC(=O)N1CCN(c2nc(=O)n(-c3c(C)ccnc3C(C)C)c3nc(-c4c(O)cccc4F)c(F)cc23)C(C)C1"
property_measured = "viability, T/C"
obs_value = 15.9

[[record]]
molecule = "COC(=O)c1ccc2c(C(=Nc3ccc(N(C)C(=O)CN4CCN(C)CC4)cc3)c3ccccc3)c(O)[nH]c2c1 + C=CC(=O)N1CCN(c2nc(=O)n(-c3c(C)ccnc3C(C)C)c3nc(-c4c(O)cccc4F)c(F)cc23)C(C)C1"
property_measured = "viability, T/C"
obs_value = 50.7

[[record]]
molecule = "CC1OCC2(CCN(c3cnc(Sc4ccnc(N)c4Cl)c(N)n3)CC2)C1N (centres undefined) + C=CC(=O)N1CCN(c2nc(OCC3CCCN3C)nc3c2CCN(c2cccc4cccc(C)c24)C3)CC1CC#N"
property_measured = "viability, T/C"
obs_value = 15.1

[[record]]
molecule = "COc1cc2nccc(Oc3ccc(NC(=O)C4(C(=O)Nc5ccc(F)cc5)CC4)cc3)c2cc1OC + C=CC(=O)N1CCN(c2nc(OCC3CCCN3C)nc3c2CCN(c2cccc4cccc(C)c24)C3)CC1CC#N"
property_measured = "viability, T/C"
obs_value = 67.3

[[record]]
molecule = "CC(=O)OC12COC1CC(O)C1(C)C(=O)C(O)C3=C(C)C(OC(=O)C(O)C(NC(=O)OC(C)(C)C)c4ccccc4)CC(O)(C(OC(=O)c4ccccc4)C21)C3(C)C (centres undefined) + C=CC(=O)N1CCN(c2nc(OCC3CCCN3C)nc3c2CCN(c2cccc4cccc(C)c24)C3)CC1CC#N"
property_measured = "viability, T/C"
obs_value = 20.7

[[record]]
molecule = "CC(=O)OC12COC1CC(O)C1(C)C(=O)C(O)C3=C(C)C(OC(=O)C(O)C(NC(=O)OC(C)(C)C)c4ccccc4)CC(O)(C(OC(=O)c4ccccc4)C21)C3(C)C (centres undefined) + CNCc1ccccc1-c1csc(C(C)Nc2nc(C)nc3cc(OC)c(OC)cc23)c1"
property_measured = "viability, T/C"
obs_value = 26.5

[[record]]
molecule = "Cn1nccc1Nc1nccc(-c2cc3c(s2)C(C)(C)N(CCN2CCOCC2)C3=O)n1 + C=CC(=O)N1CCN(c2nc(=O)n(-c3c(C)ccnc3C(C)C)c3nc(-c4c(O)cccc4F)c(F)cc23)C(C)C1"
property_measured = "viability, T/C"
obs_value = 38.2


###

test system: KRAS patient-derived spheroids with HUVEC/MSC, viability; assay: Anticancer human tumor 323965-272-R-J2-PDC cell line growth inhibition [KRAS2]; conditions: second compound 0.1 µM; first compound 0.000316 µM; active compounds read low;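 note: spheroids exposed to agents for 7 days; 100% = DMSO vehicle control viability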
Property Measured: viability, T/C (%)

[[record]]
compound = "CC(=O)Nc1cccc(-n2c(=O)n(C3CC3)c(=O)c3c(Nc4ccc(I)cc4F)n(C)c(=O)c(C)c32)c1 + C=CC(=O)N1CCN(c2nc(OCC3CCCN3C)nc3c2CCN(c2cccc4cccc(C)c24)C3)CC1CC#N"
unit_descriptor = "%"
obs_value = 56.8

[[record]]
compound = "CC(=O)Nc1cccc(-n2c(=O)n(C3CC3)c(=O)c3c(Nc4ccc(I)cc4F)n(C)c(=O)c(C)c32)c1 + CNCc1ccccc1-c1csc(C(C)Nc2nc(C)nc3cc(OC)c(OC)cc23)c1"
unit_descriptor = "%"
obs_value = 83.9

[[record]]
compound = "CN(C)C/C=C/C(=O)Nc1cc2c(Nc3ccc(F)c(Cl)c3)ncnc2cc1O[C@H]1CCOC1 + C=CC(=O)N1CCN(c2nc(=O)n(-c3c(C)ccnc3C(C)C)c3nc(-c4c(O)cccc4F)c(F)cc23)C(C)C1"
unit_descriptor = "%"
obs_value = 63.3


###

# viability, T/C listing for each entry below
system: KRAS patient-derived spheroids with HUVEC/MSC, viability; test: Anticancer human tumor 323965-272-R-J2-PDC cell line growth inhibition [KRAS2]; settings: second compound 1 µM; first compound 1 µM; active compounds read low;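 note: spheroids exposed to agents for 7 days; 100% = DMSO vehicle control viability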
Property Measured: viability, T/C (%)

[[record]]
molecule = "Cn1nccc1Nc1nccc(-c2cc3c(s2)C(C)(C)N(CCN2CCOCC2)C3=O)n1 + COc1cc2nc(C)nc(NC(C)c3cc(N)cc(C(F)(F)F)c3)c2cc1OC1CCOC1"
unit_descriptor = "%"
obs_value = 35.6

[[record]]
molecule = "CCNC(=O)CC1N=C(c2ccc(Cl)cc2)c2cc(OC)ccc2-n2c(C)nnc21 (stereo not drawn) + C=CC(=O)N1CCN(c2nc(=O)n(-c3c(C)ccnc3C(C)C)c3nc(-c4c(O)cccc4F)c(F)cc23)C(C)C1"
unit_descriptor = "%"
obs_value = 32.5

[[record]]
molecule = "Cn1nccc1Nc1nccc(-c2cc3c(s2)C(C)(C)N(CCN2CCOCC2)C3=O)n1 + CNCc1ccccc1-c1csc(C(C)Nc2nc(C)nc3cc(OC)c(OC)cc23)c1"
unit_descriptor = "%"
obs_value = 67.3


###

system: KRAS patient-derived spheroids with HUVEC/MSC, viability; test: Anticancer human tumor 323965-272-R-J2-PDC cell line growth inhibition [KRAS2]; settings: second compound 3.16 µM; first compound 3.16 µM; active compounds read low;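 note: spheroids exposed to agents for 7 days; 100% = DMSO vehicle control viability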
// reported viability, T/C per item
Property Measured: viability, T/C (%)

[[record]]
compound = "COc1cc2nccc(Oc3ccc(NC(=O)C4(C(=O)Nc5ccc(F)cc5)CC4)cc3)c2cc1OC + COc1cc2nc(C)nc(NC(C)c3cc(N)cc(C(F)(F)F)c3)c2cc1OC1CCOC1"
property_measured = "viability, T/C"
obs_value = 79

[[record]]
compound = "CC1(C)CCC(CN2CCN(c3ccc(C(=O)NS(=O)(=O)c4ccc(NCC5CCOCC5)c([N+](=O)[O-])c4)c(Oc4cnc5[nH]ccc5c4)c3)CC2)=C(c2ccc(Cl)cc2)C1 + C=CC(=O)N1CCN(c2nc(=O)n(-c3c(C)ccnc3C(C)C)c3nc(-c4c(O)cccc4F)c(F)cc23)C(C)C1"
property_measured = "viability, T/C"
obs_value = 15.8

[[record]]
compound = "Cn1nccc1Nc1nccc(-c2cc3c(s2)C(C)(C)N(CCN2CCOCC2)C3=O)n1 + CNCc1ccccc1-c1csc(C(C)Nc2nc(C)nc3cc(OC)c(OC)cc23)c1"
property_measured = "viability, T/C"
obs_value = 43.2

[[record]]
compound = "CCNC(=O)CC1N=C(c2ccc(Cl)cc2)c2cc(OC)ccc2-n2c(C)nnc21 (centres undefined) + CC1OCC2(CCN(c3cnc(Sc4ccnc(N)c4Cl)c(N)n3)CC2)C1N"
property_measured = "viability, T/C"
obs_value = 6.89

[[record]]
compound = "CC(C)NCC(C(=O)N1CCN(c2ncnc3c2C(C)CC3O)CC1)c1ccc(Cl)cc1 (centres undefined) + COc1cc2nc(C)nc(NC(C)c3cc(N)cc(C(F)(F)F)c3)c2cc1OC1CCOC1"
property_measured = "viability, T/C"
obs_value = 24.8

[[record]]
compound = "CC1OCC2(CCN(c3cnc(Sc4ccnc(N)c4Cl)c(N)n3)CC2)C1N (centres undefined) + CNCc1ccccc1-c1csc(C(C)Nc2nc(C)nc3cc(OC)c(OC)cc23)c1"
property_measured = "viability, T/C"
obs_value = 27

[[record]]
compound = "O=C(c1cc(Cc2n[nH]c(=O)c3ccccc23)ccc1F)N1CCN(C(=O)C2CC2)CC1 + COc1cc2nc(C)nc(NC(C)c3cc(N)cc(C(F)(F)F)c3)c2cc1OC1CCOC1"
property_measured = "viability, T/C"
obs_value = 76.9

[[record]]
compound = "Cn1nccc1Nc1nccc(-c2cc3c(s2)C(C)(C)N(CCN2CCOCC2)C3=O)n1 + CC1OCC2(CCN(c3cnc(Sc4ccnc(N)c4Cl)c(N)n3)CC2)C1N"
property_measured = "viability, T/C"
obs_value = 14.7

[[record]]
compound = "CC(C)NCC(C(=O)N1CCN(c2ncnc3c2C(C)CC3O)CC1)c1ccc(Cl)cc1 (centres undefined) + CC1OCC2(CCN(c3cnc(Sc4ccnc(N)c4Cl)c(N)n3)CC2)C1N"
property_measured = "viability, T/C"
obs_value = 5.77

[[record]]
compound = "COc1cc2nccc(Oc3ccc(NC(=O)C4(C(=O)Nc5ccc(F)cc5)CC4)cc3)c2cc1OC + C=CC(=O)N1CCN(c2nc(OCC3CCCN3C)nc3c2CCN(c2cccc4cccc(C)c24)C3)CC1CC#N"
property_measured = "viability, T/C"
obs_value = 3.65

[[record]]
compound = "CC(=O)OC12COC1CC(O)C1(C)C(=O)C(O)C3=C(C)C(OC(=O)C(O)C(NC(=O)OC(C)(C)C)c4ccccc4)CC(O)(C(OC(=O)c4ccccc4)C21)C3(C)C (centres undefined) + CC1OCC2(CCN(c3cnc(Sc4ccnc(N)c4Cl)c(N)n3)CC2)C1N"
property_measured = "viability, T/C"
obs_value = 17.2

[[record]]
compound = "CC1OCC2(CCN(c3cnc(Sc4ccnc(N)c4Cl)c(N)n3)CC2)C1N (centres undefined) + C=CC(=O)N1CCN(c2nc(=O)n(-c3c(C)ccnc3C(C)C)c3nc(-c4c(O)cccc4F)c(F)cc23)C(C)C1"
property_measured = "viability, T/C"
obs_value = 15.8

[[record]]
compound = "CC(=O)OC12COC1CC(O)C1(C)C(=O)C(O)C3=C(C)C(OC(=O)C(O)C(NC(=O)OC(C)(C)C)c4ccccc4)CC(O)(C(OC(=O)c4ccccc4)C21)C3(C)C (centres undefined) + CNCc1ccccc1-c1csc(C(C)Nc2nc(C)nc3cc(OC)c(OC)cc23)c1"
property_measured = "viability, T/C"
obs_value = 30.4

[[record]]
compound = "CC1(C)CCC(CN2CCN(c3ccc(C(=O)NS(=O)(=O)c4ccc(NCC5CCOCC5)c([N+](=O)[O-])c4)c(Oc4cnc5[nH]ccc5c4)c3)CC2)=C(c2ccc(Cl)cc2)C1 + CNCc1ccccc1-c1csc(C(C)Nc2nc(C)nc3cc(OC)c(OC)cc23)c1"
property_measured = "viability, T/C"
obs_value = 1.61

[[record]]
compound = "CC(=O)OC12COC1CC(O)C1(C)C(=O)C(O)C3=C(C)C(OC(=O)C(O)C(NC(=O)OC(C)(C)C)c4ccccc4)CC(O)(C(OC(=O)c4ccccc4)C21)C3(C)C (centres undefined) + COc1cc2nc(C)nc(NC(C)c3cc(N)cc(C(F)(F)F)c3)c2cc1OC1CCOC1"
property_measured = "viability, T/C"
obs_value = 24.3

[[record]]
compound = "CCNC(=O)CC1N=C(c2ccc(Cl)cc2)c2cc(OC)ccc2-n2c(C)nnc21 (centres undefined) + COc1cc2nc(C)nc(NC(C)c3cc(N)cc(C(F)(F)F)c3)c2cc1OC1CCOC1"
property_measured = "viability, T/C"
obs_value = 26.2

[[record]]
compound = "COC(=O)c1ccc2c(C(=Nc3ccc(N(C)C(=O)CN4CCN(C)CC4)cc3)c3ccccc3)c(O)[nH]c2c1 + CC1OCC2(CCN(c3cnc(Sc4ccnc(N)c4Cl)c(N)n3)CC2)C1N"
property_measured = "viability, T/C"
obs_value = 31.9

[[record]]
compound = "CC1(C)CCC(CN2CCN(c3ccc(C(=O)NS(=O)(=O)c4ccc(NCC5CCOCC5)c([N+](=O)[O-])c4)c(Oc4cnc5[nH]ccc5c4)c3)CC2)=C(c2ccc(Cl)cc2)C1 + C=CC(=O)N1CCN(c2nc(OCC3CCCN3C)nc3c2CCN(c2cccc4cccc(C)c24)C3)CC1CC#N"
property_measured = "viability, T/C"
obs_value = 0.43

[[record]]
compound = "O=C(c1cc(Cc2n[nH]c(=O)c3ccccc23)ccc1F)N1CCN(C(=O)C2CC2)CC1 + C=CC(=O)N1CCN(c2nc(=O)n(-c3c(C)ccnc3C(C)C)c3nc(-c4c(O)cccc4F)c(F)cc23)C(C)C1"
property_measured = "viability, T/C"
obs_value = 58.7

